Kd reference
measured-target: GCGR extracellular domain (human, UniProt P47871)
Sequence (P47871 26-477): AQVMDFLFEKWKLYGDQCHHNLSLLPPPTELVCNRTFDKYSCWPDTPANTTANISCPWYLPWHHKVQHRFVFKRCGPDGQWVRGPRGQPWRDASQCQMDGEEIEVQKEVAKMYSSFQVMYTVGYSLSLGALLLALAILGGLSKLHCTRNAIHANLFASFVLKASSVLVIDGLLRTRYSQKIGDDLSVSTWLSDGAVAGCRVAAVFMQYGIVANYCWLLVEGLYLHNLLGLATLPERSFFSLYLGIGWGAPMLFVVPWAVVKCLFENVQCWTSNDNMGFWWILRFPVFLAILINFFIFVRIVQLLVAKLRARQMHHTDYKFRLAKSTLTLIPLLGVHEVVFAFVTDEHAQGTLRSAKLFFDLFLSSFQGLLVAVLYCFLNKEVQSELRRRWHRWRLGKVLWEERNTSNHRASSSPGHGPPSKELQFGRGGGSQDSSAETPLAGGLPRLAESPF
assay: SPR
Numbers only; they are read as nM.

For orientation, consider the following solved cases.
binder: VH Y31V (antibody, V domains shown) VH: EVQLVESGGGLVQPGGSLRLSCAASGFNIYVNYIHWVRQAPGKGLEWVAEFSPYSGSTYYADSVKGRFTISADTSKNTAYLQMNSLRAEDTAVYYCARSAAIVDWYDYFKGFDYWGQGTLVTVSS VL: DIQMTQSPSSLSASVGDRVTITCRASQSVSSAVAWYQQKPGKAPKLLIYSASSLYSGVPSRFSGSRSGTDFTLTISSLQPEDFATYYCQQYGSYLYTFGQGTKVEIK
recorded-number: 406
//
binder: VH Y100bV (antibody, V domains shown) VH: EVQLVESGGGLVQPGGSLRLSCAASGFNIYYNYIHWVRQAPGKGLEWVAEFSPYSGSTYYADSVKGRFTISADTSKNTAYLQMNSLRAEDTAVYYCARSAAIVDWVDYFKGFDYWGQGTLVTVSS VL: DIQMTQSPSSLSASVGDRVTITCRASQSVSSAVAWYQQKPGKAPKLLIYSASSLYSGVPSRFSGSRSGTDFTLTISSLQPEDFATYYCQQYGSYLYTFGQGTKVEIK
recorded-number: 1.08
//
binder: VH Y30F (antibody, V domains shown) VH: EVQLVESGGGLVQPGGSLRLSCAASGFNIFYNYIHWVRQAPGKGLEWVAEFSPYSGSTYYADSVKGRFTISADTSKNTAYLQMNSLRAEDTAVYYCARSAAIVDWYDYFKGFDYWGQGTLVTVSS VL: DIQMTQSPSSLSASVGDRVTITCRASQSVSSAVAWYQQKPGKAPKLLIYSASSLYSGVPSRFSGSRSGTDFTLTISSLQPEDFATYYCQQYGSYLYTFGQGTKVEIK
recorded-number: 1.23
//
binder: VH Y30W (antibody, V domains shown) VH: EVQLVESGGGLVQPGGSLRLSCAASGFNIWYNYIHWVRQAPGKGLEWVAEFSPYSGSTYYADSVKGRFTISADTSKNTAYLQMNSLRAEDTAVYYCARSAAIVDWYDYFKGFDYWGQGTLVTVSS VL: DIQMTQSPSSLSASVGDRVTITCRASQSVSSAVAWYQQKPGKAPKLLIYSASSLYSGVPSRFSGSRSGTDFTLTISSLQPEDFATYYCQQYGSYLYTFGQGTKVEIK
recorded-number: 6.44
//
binder: VL Y94W (antibody, V domains shown) VH: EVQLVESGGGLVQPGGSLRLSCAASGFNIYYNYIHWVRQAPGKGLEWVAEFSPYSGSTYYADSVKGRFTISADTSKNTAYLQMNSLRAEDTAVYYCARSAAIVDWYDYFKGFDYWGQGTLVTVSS VL: DIQMTQSPSSLSASVGDRVTITCRASQSVSSAVAWYQQKPGKAPKLLIYSASSLYSGVPSRFSGSRSGTDFTLTISSLQPEDFATYYCQQYGSWLYTFGQGTKVEIK
recorded-number: 2.55

Problem: Report measured Kd; entry is VH Y30K (antibody, V domains shown) VH: EVQLVESGGGLVQPGGSLRLSCAASGFNIKYNYIHWVRQAPGKGLEWVAEFSPYSGSTYYADSVKGRFTISADTSKNTAYLQMNSLRAEDTAVYYCARSAAIVDWYDYFKGFDYWGQGTLVTVSS VL: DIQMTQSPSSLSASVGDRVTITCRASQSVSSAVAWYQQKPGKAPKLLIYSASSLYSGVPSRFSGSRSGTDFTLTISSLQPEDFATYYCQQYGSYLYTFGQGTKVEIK
Solution: 363

Problem: Report measured Kd; entry is VH W100aH (antibody, V domains shown) VH: EVQLVESGGGLVQPGGSLRLSCAASGFNIYYNYIHWVRQAPGKGLEWVAEFSPYSGSTYYADSVKGRFTISADTSKNTAYLQMNSLRAEDTAVYYCARSAAIVDHYDYFKGFDYWGQGTLVTVSS VL: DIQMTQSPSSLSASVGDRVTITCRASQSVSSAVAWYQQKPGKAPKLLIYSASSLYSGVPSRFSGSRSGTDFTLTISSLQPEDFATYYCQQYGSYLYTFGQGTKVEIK
Solution: 41.7

Problem: Report measured Kd; entry is VH W100aF (antibody, V domains shown) VH: EVQLVESGGGLVQPGGSLRLSCAASGFNIYYNYIHWVRQAPGKGLEWVAEFSPYSGSTYYADSVKGRFTISADTSKNTAYLQMNSLRAEDTAVYYCARSAAIVDFYDYFKGFDYWGQGTLVTVSS VL: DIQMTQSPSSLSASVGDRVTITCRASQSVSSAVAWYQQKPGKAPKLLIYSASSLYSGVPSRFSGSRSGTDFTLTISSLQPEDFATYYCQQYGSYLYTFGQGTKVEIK
Solution: 5.2

Problem: Report measured Kd; entry is VL Y94T (antibody, V domains shown) VH: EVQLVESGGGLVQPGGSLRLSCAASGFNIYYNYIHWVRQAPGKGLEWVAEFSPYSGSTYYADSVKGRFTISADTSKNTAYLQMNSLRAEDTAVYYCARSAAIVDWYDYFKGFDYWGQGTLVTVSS VL: DIQMTQSPSSLSASVGDRVTITCRASQSVSSAVAWYQQKPGKAPKLLIYSASSLYSGVPSRFSGSRSGTDFTLTISSLQPEDFATYYCQQYGSTLYTFGQGTKVEIK
Solution: 2.71

Problem: Report measured Kd; entry is VH Y30L (antibody, V domains shown) VH: EVQLVESGGGLVQPGGSLRLSCAASGFNILYNYIHWVRQAPGKGLEWVAEFSPYSGSTYYADSVKGRFTISADTSKNTAYLQMNSLRAEDTAVYYCARSAAIVDWYDYFKGFDYWGQGTLVTVSS VL: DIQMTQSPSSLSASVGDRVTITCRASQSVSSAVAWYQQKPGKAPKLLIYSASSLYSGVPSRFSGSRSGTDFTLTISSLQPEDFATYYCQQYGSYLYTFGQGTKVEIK
Solution: 4.63
